Please go through the items and note down their Relative potency.
Measurement Protocol: Percent of relative potency by NADH oxidase assay
Give bare numbers.

compound="CCCCCCCCCC[C@H](O)[C@H]1CC[C@H]([C@H]2CC[C@H]([C@H](O)CCCCC(O)CCCCCCCC3=C[C@H](C)OC3=O)O2)O1 (stereo not given in full)" metric="Relative potency" result=26.3

Fill in Relative potency for each of the 8 compounds listed.
1. CCCCCCCCCC[C@@H](O)[C@@H]1CC[C@@H]([C@@H]2CC[C@@H]([C@H](O)CCCCCCCCCC(O)CC3=CC(C)OC3=O)O2)O1 (stereo not given in full)
2. CCCCCCCCCC[C@H](O)[C@H]1CC[C@H]([C@H]2CC[C@H]([C@H](O)CCCCCCCCCCCCC3=C[C@H](C)OC3=O)O2)O1
3. CCCCCCC(=O)CCC[C@H](O)[C@H]1CC[C@H]([C@H]2CC[C@H]([C@H](O)CCCCCCCCCCCCC3=C[C@H](C)OC3=O)O2)O1
4. CCCCCCCCCC[C@H](O)[C@H]1CC[C@@H]([C@@H]2CC[C@H]([C@H](O)CCCCCCCCCC/C(CC3=C[C@H](C)OC3=O)=N\O)O2)O1
5. CCCCC[C@H](O)CCCC[C@H](O)[C@H]1CC[C@H]([C@H]2CC[C@H]([C@H](O)CCCCCCCCCCCCC3=C[C@H](C)OC3=O)O2)O1
6. CCCCCCCCCC[C@H](O)[C@H]1CC[C@H]([C@H]2CC[C@H]([C@H](O)CCCC/C(CCCCCCCC3=C[C@H](C)OC3=O)=N\O)O2)O1
7. CCCCCC/C(CCC[C@H](O)[C@H]1CC[C@H]([C@H]2CC[C@H]([C@H](O)CCCCCCCCCCCCC3=C[C@H](C)OC3=O)O2)O1)=N\O
8. CCCCCCCCCC[C@H](O)[C@H]1CC[C@@H]([C@@H]2CC[C@H]([C@H](O)CCCCCCCC[C@@H](O)CC3=C[C@H](C)OC3=O)O2)O1

49
78.1
38.5
100
61
73.5
33.8
75.8

Item under review: CCCCCCCCCC[C@H](OS(C)(=O)=O)[C@H]1CC[C@@H]([C@@H]2CC[C@H]([C@@H](CCCCCCCCCC[C@H](CC3=C[C@H](C)OC3=O)OS(C)(=O)=O)OS(C)(=O)=O)O2)O1 . Reported Relative potency?
6.7

----------
Measurement Protocol: Ratio of IC50 of DB to that of NADH oxidase
Please go through the items and note down their Ratio.
Give bare numbers.

Observe how each entry below is paired with its result.
molecule=CCCCCCC(=O)CCC[C@H](O)[C@H]1CC[C@H]([C@H]2CC[C@H]([C@H](O)CCCCCCCCCCCCC3=C[C@H](C)OC3=O)O2)O1 result=1.9
molecule=CCCCCCCCCC[C@H](O)[C@H]1CC[C@@H]([C@@H]2CC[C@H]([C@H](O)CCCCCCCCCC/C(CC3=C[C@H](C)OC3=O)=N\O)O2)O1 result=1.1
molecule=CCCCCCCCCC[C@H](O)[C@H]1CC[C@H]([C@H]2CC[C@H]([C@H](O)CCCC/C(CCCCCCCC3=C[C@H](C)OC3=O)=N\O)O2)O1 result=2
molecule=CCCCC[C@H](O)CCCC[C@H](O)[C@H]1CC[C@H]([C@H]2CC[C@H]([C@H](O)CCCCCCCCCCCCC3=C[C@H](C)OC3=O)O2)O1 result=2

Item under review: CCCCCC(CCCC[C@H](OC(C)=O)[C@H]1CC[C@H]([C@H]2CC[C@H]([C@@H](CCCCCCCCCCCCC3=C[C@H](C)OC3=O)OC(C)=O)O2)O1)OC(C)=O (stereo not given in full) . Reported Ratio?
118
